Please respond with reported melting point for every item in the list.

Consider the worked cases shown below.
[
  {
    "molecule": "CCOC(=O)/C=C/c1cnc2c(c1)C(=O)N(C)c1ccc(Cl)nc1N2CC",
    "result": "192 to 193 °C"
  },
  {
    "molecule": "O=[N+]([O-])c1ccc2c(c1)Sc1cc(I)ccc1N2",
    "result": "> 250 °C"
  },
  {
    "molecule": "CCNc1cccnc1N1CCN(C(=O)c2ccc(C(=O)NC(C)(C)CO)cn2)CC1",
    "result": "128 to 130 °C"
  },
  {
    "molecule": "CC(C)OC(=O)c1nnc2n1-c1ccc(Cl)cc1C(c1ccccc1Cl)=NC2",
    "result": "229 to 230 °C"
  },
  {
    "molecule": "CCCCCCCCCCCCCCCCc1cc(-c2ccccn2)nc(-c2ccccn2)c1",
    "result": "97.5 to 99 °C"
  },
  {
    "molecule": "CCOC(=O)C1=C(C)NC(=S)N(C(=O)OCC)C1c1cccc2nonc12 (centres undefined)",
    "result": "144 to 146 °C"
  },
  {
    "molecule": "CC(C)c1cccc(C(C)C)c1NC(=O)Nc1c(-c2cccc(O)c2)c2cccnc2n(C)c1=O",
    "result": "152 to 155 °C"
  },
  {
    "molecule": "CC(Oc1cccc2c1C(=O)N(C1CCC(=O)NC1=O)C2=O)c1ccc2ccccc2c1 (centres undefined)",
    "result": "174 to 176 °C"
  }
]

Lab note: next molecule to report on.
# input molecule: COC(=O)c1ccc(C(=O)c2cccnc2)cc1 ; wanted: its melting point
144 to 146 °C

The measurements presented in this section are drawn from a melting point compilation (Tetko et al.; mined from patent text by program, amines drawn as free bases though some values may be those of a salt).
